assay: Oral bioavailability in C57BL/6 mouse at 30 mg/kg by LC-MS/MS analysis; type: ADME, organism-based; conditions: C57BL/6, mouse, in vivo
attribute-measured: bioavailability (%)
State just the number; it will be interpreted in %.

Incoming: Endpoint output: bioavailability of COc1ccccc1C1CCN(c2nc(C3(F)CC3)nc3ccc(N(C)CCO)cc23)CC1.Cl . Value?
Outgoing: 45

====

target: UniProt:P30989; experiment: Allosteric modulation of human GFP-fused PK-tagged Gq-coupled NTR1 expressed in CHOK1 cells assessed as induction of NT (8 to 13) peptide-mediated beta-arrestin recruitment measured after 90 mins by pathhunter assay relative to NT (8 to 13) peptide; assay type: cell-based
attribute-measured: Emax (%)
Number only, in %; omit the unit.

Study these solved cases before continuing.
COc1ccccc1C1CCN(c2nc(C3CC3)nc3c(Cl)cc(N(C)CCO)cc23)CC1; 95
COc1ccccc1C1CCN(c2nc(C3CC3)nc3ccc(N(C)CCO)cc23)CC1; 92
COc1ccccc1C1CCN(c2nc(C3CC3)nc3ccc(N4CC[C@H](OC)C4)cc23)CC1; 82

Incoming: // Emax lookup, key: COc1ccccc1C1CCN(c2nc(C3CC3)nc3c(C)cc(N(C)CCO)cc23)CC1
Outgoing: 87

Incoming: Which measured Emax value corresponds to COc1ccccc1C1CCN(c2nc(C3CC3)nc3ccc(N(C)C)cc23)CC1 ?
Outgoing: 89

Incoming: Name the recorded Emax for COc1ccccc1C1CCN(c2nc(C3CC3)nc3ccc(N(C)CCN4CCOCC4)cc23)CC1 .
Outgoing: 92

Incoming: For COc1ccccc1C1CCN(c2nc(C3CC3)nc3ccc(N4CC[C@@H](OC)C4)cc23)CC1 , what is its reported Emax?
Outgoing: 93

Incoming: Quick one: Emax of COc1ccccc1C1CCN(c2nc(C3CC3)nc3ccc(N(C)CCO)c(C)c23)CC1 ?
Outgoing: 93

Incoming: Given the molecule CCCN(C)c1ccc2nc(C3CC3)nc(N3CCC(c4ccccc4OC)CC3)c2c1 , what is its reported Emax?
Outgoing: 68

====

assay: Volume of distribution in C57BL/6 mouse at 5 mg/kg, iv by LC-MS/MS analysis; format: ADME, organism-based; details: in vivo
attribute-measured: Vd (L/kg)
Kindly answer with a numeric value in L/kg, unit omitted.

Incoming: Dear colleague, I am looking for the recorded Vd of the following molecule: COc1ccccc1C1CCN(c2nc(C3(C)CC3)nc3ccc(N(C)CCO)cc23)CC1
Outgoing: 7.68

====

target: Neurotensin receptor type 1 (Homo sapiens, UniProt P30989); assay: Allosteric modulation of human GFP-fused PK-tagged Gq-coupled NTR1 expressed in CHOK1 cells assessed as induction of NT (8 to 13) peptide-mediated beta-arrestin recruitment measured after 90 mins by pathhunter assay relative to NT (8 to 13) peptide; format: cell-based
Sequence (P30989 whole entry, the tested form may be a part): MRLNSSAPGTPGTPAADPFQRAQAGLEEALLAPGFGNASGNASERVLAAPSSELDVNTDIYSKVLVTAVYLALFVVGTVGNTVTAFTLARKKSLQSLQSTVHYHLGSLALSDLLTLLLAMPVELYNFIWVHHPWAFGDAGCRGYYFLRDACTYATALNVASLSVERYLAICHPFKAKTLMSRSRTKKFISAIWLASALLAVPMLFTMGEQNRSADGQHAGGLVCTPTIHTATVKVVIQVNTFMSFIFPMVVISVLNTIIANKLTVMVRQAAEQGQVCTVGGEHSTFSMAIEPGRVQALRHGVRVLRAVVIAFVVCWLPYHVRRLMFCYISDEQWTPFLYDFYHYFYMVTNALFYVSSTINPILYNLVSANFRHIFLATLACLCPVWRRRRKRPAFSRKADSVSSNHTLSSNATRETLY
Collected Emax values appear next to each entry.

Examples with answers:
COc1ccccc1C1CCN(c2nc(C3(C)CCC3)nc3ccc(N(C)CCO)cc23)CC1; 75%
COc1ccccc1C1CCN(c2nc(C3CC3)nc3cc(C)c(N(C)CCO)cc23)CC1; 88%
COc1ccccc1C1CCN(c2nc(C3CC3)nc3ccc(N4CCC(O)CC4)cc23)CC1; 82%
COc1cc2nc(C3CC3)nc(N3CCC(c4ccccc4OC)CC3)c2cc1OC; 89%

Incoming: GET /values?readout=Emax&system=Neurotensin receptor type 1 (Homo sapiens, UniProt P30989)&item= CCCN(C)c1cc2c(N3CCC(c4ccccc4OC)CC3)nc(C3CC3)nc2cc1C
Outgoing: 86%

====

test: Clearance in C57BL/6 mouse at 5 mg/kg, iv by LC-MS/MS analysis; type: ADME, organism-based; settings: in vivo
attribute-measured: clearance (mL/min/kg)
Give a bare numeral; the unit mL/min/kg is implied.

COc1ccccc1C1CCN(c2nc(C3(C)CC3)nc3ccc(N(C)CCO)cc23)CC1; 79.4

Read the next record carefully.
Incoming: Please look up its clearance: COc1ccccc1C1CCN(c2nc(C3(F)CC3)nc3ccc(N(C)CCO)cc23)CC1
Outgoing: 44.8

====

target: Neurotensin receptor type 1 (Homo sapiens); assay: Allosteric modulation of human GFP-fused PK-tagged Gq-coupled NTR1 expressed in CHOK1 cells assessed as induction of NT (8 to 13) peptide-mediated beta-arrestin recruitment measured after 90 mins by pathhunter assay relative to NT (8 to 13) peptide; assay type: cell-based
Decision: Emax compared against 80%; not below it gives yes, below it gives no.

Worked cases, answers included:
COc1ccccc1C1CCN(c2nc(C3CC3)nc3cc(Cl)c(N(C)CCO)cc23)CC1; yes
COc1ccccc1C1CCN(c2nc(C3(F)CC3)nc3ccc(N(C)C)cc23)CC1; yes
COc1ccccc1C1CCN(c2nc(C3(F)CC3)nc3ccc(N(C)CCO)cc23)CC1; yes
CCCN(C)c1ccc2c(N3CCC(c4ccccc4OC)CC3)nc(C3CC3)nc2c1; yes

Now turn to the next molecule.
Incoming: Would you say CCCN(C)c1cc2c(N3CCC(c4ccccc4OC)CC3)nc(C3CC3)nc2cc1F shows Emax at minimum 80%?
Outgoing: no

====

Measured EC50 by item
biological target: Neurotensin receptor type 1 (Homo sapiens); assay: Allosteric modulation of human GFP-fused PK-tagged Gq-coupled NTR1 expressed in CHOK1 cells assessed as induction of NT (8 to 13) peptide-mediated beta-arrestin recruitment measured after 90 mins by pathhunter assay; assay type: cell-based

CCCN(C)c1cc2c(N3CCC(c4ccccc4OC)CC3)nc(C3CC3)nc2cc1F; 3010 nM
COc1ccccc1C1CCN(c2nc(C3CC3)nc3ccc(N(C)C)cc23)CC1; 888 nM
COc1cc2nc(C3CC3)nc(N3CCC(c4ccccc4OC)CC3)c2cc1OC; 1040 nM
COc1cc2nc(C3CC3)nc(C3CCN(c4ccccc4OC)CC3)c2cc1OC; > 20000 nM
COc1ccccc1C1CCN(c2nc(C3CC3)nc3ccc(N(C)CCO)c(Cl)c23)CC1; 500 nM

Incoming: EC50 for COc1ccccc1C1CCN(c2nc(C3CC3)nc3ccc(N4CCC(O)CC4)cc23)CC1 ?
Outgoing: 6720 nM

Incoming: EC50 lookup needed for COc1ccccc1C1CCN(c2nc(C3CC3)nc3ccc(N(C)CCO)c(F)c23)CC1 , thanks.
Outgoing: 590 nM

Incoming: Please look up its EC50: COc1ccccc1C1CCN(c2nc(C3CC3)nc3cc(Cl)c(N(C)CCO)cc23)CC1
Outgoing: 600 nM

Incoming: Requested field: EC50. Item: COc1ccccc1C1CCN(c2nc(C3CC3)nc3ccc(N(C)CCO)c(C)c23)CC1
Outgoing: 1260 nM

Incoming: Fill blank: measured EC50 of the compound COc1ccccc1C1CCN(c2nc(C3CC3)nc3ccc(N4CC[C@@H](OC)C4)cc23)CC1 is ____.
Outgoing: 640 nM

Incoming: Entry CCN(C)c1cccc2nc(C3CC3)nc(N3CCC(c4ccccc4OC)CC3)c12 has what EC50?
Outgoing: 6710 nM

Incoming: Find the recorded EC50 belonging to COc1ccccc1C1CCN(c2nc(C3CC3)nc3ccc(N(C)CCO)cc23)CC1 and report it.
Outgoing: 478 nM

Incoming: Bench note: what EC50 did COc1ccccc1C1CCN(c2nc(C3CC3)nc3ccc(N4CC[C@H](O)C4)cc23)CC1 show?
Outgoing: 1010 nM

Incoming: Consider the compound COc1ccccc1C1CCN(c2nc(C3(C)CC3)nc3ccc(N(C)CCN4CCOCC4)cc23)CC1 and give its measured EC50.
Outgoing: 3360 nM

Incoming: For the compound shown here, COc1ccccc1C1CCN(c2nc(C3CCC3)nc3ccc(N(C)CCO)cc23)CC1 , give the reported EC50.
Outgoing: 1050 nM

Incoming: Give the measured EC50 of COc1ccccc1C1CCN(c2nc(C3(C(F)(F)F)CC3)nc3ccc(N(C)CCN4CCOCC4)cc23)CC1 .
Outgoing: 3810 nM

Incoming: Recorded EC50 for COc1ccccc1C1CCN(c2nc(C3(F)CC3)nc3ccc(N(C)C)cc23)CC1 , please?
Outgoing: 920 nM

Incoming: Find the recorded EC50 belonging to COCCN(C)c1ccc2nc(C3(C)CC3)nc(N3CCC(c4ccccc4OC)CC3)c2c1 and report it.
Outgoing: 2230 nM

Incoming: Bench note: what EC50 did COc1ccccc1C1CCN(c2nc(C3CC3)nc3ccc(N4CCC(OC)CC4)cc23)CC1 show?
Outgoing: 2780 nM

Incoming: Which EC50 is listed for COc1ccccc1C1CCN(c2nc(C3CC3)nc3c(C)cc(N(C)CCO)cc23)CC1 ?
Outgoing: 160 nM

====

target: Neurotensin receptor type 2 (Homo sapiens); experiment: Allosteric modulation of NTR2 (unknown origin) assessed as induction of NT (8 to 13) peptide-mediated beta-arrestin recruitment at >80 uM by pathhunter assay
Activity calls are given as the source filed them. No cut-off for these calls is given here.
attribute-measured: Activity

COc1ccccc1C1CCN(c2nc(C3(C)CC3)nc3ccc(N(C)CCN4CCOCC4)cc23)CC1; inactive
COc1ccccc1C1CCN(c2nc(C3(F)CC3)nc3ccc(N(C)CCO)cc23)CC1; inactive
COc1ccccc1C1CCN(c2nc(C3(C(F)(F)F)CC3)nc3ccc(N(C)CCO)cc23)CC1; inactive
